# Tested on: CD34+ cells
# assay.method.text: NK cell expansion in 35-day three-stage culture with CRL compounds
# Format: cell-based, human
# settings: 10 μM; Day 35

compound	cell expansion compared to SR1
CC(C)c1csc2c(NCCc3c[nH]c4ccccc34)nc(-c3cncc(C#N)c3)nc12 [CRL17]	slightly less expansion
CC(C)c1csc2c(NCCc3c[nH]c4ccccc34)nc(-c3cncc(F)c3)nc12 [CRL18]	slightly less expansion
Cc1cncc(-c2nc(NCCc3c[nH]c4ccccc34)c3scc(C(C)C)c3n2)c1 [CRL21]	slightly less expansion
